Tested on: COLO 205 colon
Assay: NCI-60 one-dose screen, 48 h (100 = growth as untreated, 0 = no growth, -100 = all killed)
Recorded Conditions: 10 µM unless noted
This is part of a sample that, as a whole, favours compounds with a hit. Of some 83,000 tested, about 20% had one in any assay.
Attribute Measured: growth (%)
Answers are plain numbers, in %.

Recorded results for 2 compounds are shown here.
CCc1nnc(NC(=O)c2ccoc2COc2ccccc2)s1 = 44.2
COc1cc2nc(Cl)nc(Nc3cccc(C(=O)/C=C/c4ccc(F)cc4)c3)c2cc1OC = 89.5

Batch request: growth for each of the following compounds.
1. O=[N+]([O-])c1cccc(/C=N\Nc2ccccc2)c1
2. COc1cc(-c2cc3ncccc3c3[nH]c(=O)c4cccnc4c23)cc(OC)c1OC
3. CCCCC[C@H]1C/C=C2/C(=O)C(Cl)=C[C@@H]2C/C=C\CCCC(=O)O[C@@H](CCCCC)C/C=C2/C(=O)C(Cl)=C[C@@H]2C/C=C\CCCC(=O)O1
4. COc1ccc(-c2n/c(=C\c3c(O)[nH]c4ccc(OC)cc34)cc3c2=Nc2ccccc2-3)cc1

Return:
85.4
-18.6
-76.4
88.9

Please state, for each entry, its recorded growth.
1. C#CCn1c(C)cc(C)c(C#N)c1=O
2. COc1ccc(-c2n[nH]nc2-c2cc3ccccc3s2)cc1O
3. COc1ccc(/C=C(\C#N)c2cc3ccccc3n2C(C)=O)cc1
4. Cc1ccc2c(c1)c(-c1nc(-c3c[nH]c4ncccc34)cs1)cn2C
5. COC(=O)[C@]12CC[C@@H](C)[C@H](C)[C@@H]1C1=CC[C@@H]3[C@@]4(C)C[C@@H](O)OC[C@](C)(C=O)C4C(=O)C[C@@]3(C)[C@]1(C)CC2 (some centres undefined)
6. CC1(C)NCCC[C@]2(C)[C@H]3CC[C@@H]4[C@H]5[C@H](C(=O)/C=C/c6ccccn6)CC[C@]5(CO)CC[C@@]4(C)[C@]3(C)CC[C@@H]12
7. COc1ccc(-n2c(/C=C/c3ccc(O)c(OC)c3)cc(/C=C/c3ccc(O)c(OC)c3)nc2=O)cc1

Return:
110
51.4
97.3
112
-94.4
-74.3
56.8

====

Tested on: T-47D breast
Assay: NCI-60 one-dose screen, 48 h
Recorded Conditions: 10 µM unless noted
This is part of a sample that, as a whole, favours compounds with a hit. Of some 83,000 tested, about 20% had one in any assay. Active and inactive are the calls of the source. How the source made its calls: active means growth percent below 10; inactive means the rest.
Pick one and only one: active, inactive

Enquiry: Status in this test for O=C1CN(c2ccccc2)C(=O)C1C(=O)Nc1ccc(Cl)c(Cl)c1 (stereo not drawn) ?
Return: inactive

====

Tested on: COLO 205 colon
Assay: NCI-60 one-dose screen, 48 h
Recorded Conditions: 10 µM unless noted
This is part of a sample that, as a whole, favours compounds with a hit. Of some 83,000 tested, about 20% had one in any assay. Calls of active or inactive are those of the source. The calls were made as follows: active = growth percent below 10; inactive = the rest.
Valid outcomes are listed here; reply with one: label 1 = active, label 0 = inactive

Worked examples, 2 compounds total:
C#Cc1cc2c(N)c(C(=O)c3cc(OC)c(OC)c(OC)c3)[nH]c2cc1OC = label 1
CC(=O)O[C@@H]1CCN2C(=O)N(C)c3ccccc3[C@@H]2C1 = label 0

Enquiry: Look up the recorded call for COc1cc(NC(C)CN(CC(C)C)C(C)C)c2ncccc2c1 (centres undefined) in this test.
Return: label 0

Enquiry: Another compound to check: COc1ccc(/C(=C\c2ccc3c(c2)OCO3)C(=O)Nc2nc3ccccc3s2)cc1OC
Return: label 0

Enquiry: Continue with CN(C)c1ccc(N)c2ccccc12
Return: label 0

Enquiry: Input COc1cccc(-c2nn(-c3ccccc3)cc2-c2ccnc(NCCCNS(=O)(=O)c3ccccc3)c2)c1
Return: label 0

Enquiry: Then what about the compound Cc1ccc2c(c1)c1nc3cc(C)c(C)cc3nc1n2CCN(C)C ?
Return: label 1

Enquiry: Next up: CC(c1ccccc1)N1C(=O)C(C2SC(=S)N(C(C)c3ccccc3)C2=O)SC1=S (centres undefined)
Return: label 0

====

System: NCI/ADR-RES ovarian
Assay: NCI-60 one-dose screen, 48 h (100 = growth as untreated, 0 = no growth, -100 = all killed)
Recorded Conditions: 10 µM unless noted
This is part of a sample that, as a whole, favours compounds with a hit. Of some 83,000 tested, about 20% had one in any assay.
Attribute Measured: growth (%)
Give bare numbers, in %.

// each compound listed below needs its growth
1. COc1cc(C(=O)/C=C/c2cc(-c3ccc4c(c3)OCO4)n[nH]2)cc(OC)c1OC
2. Cc1ccc(NC2CC(=O)N(c3c(C)cc(C)cc3C)C2=O)c(C)c1 (stereo not given)
3. Nc1c(C(=O)Nc2c(Cl)cccc2Cl)sc2nc3c(cc12)CCCC3
4. Clc1ccccc1-c1nc(Nc2nc3ccccc3s2)nc(C(Cl)(Cl)Cl)n1
5. C#CCn1c2c(c3ccccc31)C[C@]1(C)[C@H]3CC[C@@H]4[C@@H]5C(=CCC[C@H]5C(=C)C)CC[C@@]4(C)[C@]3(C)CC[C@H]1C2(C)C
6. COCCNC1=C(Cl)C(=O)c2ccccc2C1=O
7. O=C(NO)c1ccc(Cn2c(=O)n(CCc3ccc(O)cc3)c(=O)c3ccccc32)cc1

Return:
1: -13.5; 2: 106; 3: 60.8; 4: 50.6; 5: 106; 6: 95.3; 7: 92.8

Parameter requested: growth. Apply to each item below.
1. CNC(=O)c1cc(Oc2ccc3nc(NC(=O)Nc4ccc(Cl)cc4)sc3c2)ccn1
2. N=c1ccc2nc3c(cc(N)c4ccccc43)oc-2c1

Return:
1: 83.6; 2: -57.7

====

System: SR leukemia
Assay: NCI-60 one-dose screen, 48 h (100 = growth as untreated, 0 = no growth, -100 = all killed)
Recorded Conditions: 10 µM unless noted
This is part of a sample that, as a whole, favours compounds with a hit. Of some 83,000 tested, about 20% had one in any assay.
Attribute Measured: growth (%)
Answers are plain numbers, in %.

c1ccc2[nH]c(-c3ccc(Nc4nc(N5CCCCC5)nc(N5CCOCC5)n4)cc3)nc2c1 = 9.79

Report growth for every entry below.
1. C=C(C)[C@@H]1CC[C@]2(c3nnc(-c4ccncc4)o3)CC[C@]3(C)[C@H](CC[C@@H]4[C@@]5(C)CCC(=O)NC(C)(C)[C@@H]5CC[C@]43C)[C@@H]12
2. C=C1C(=O)O[C@H]2[C@H]1CC/C(Cn1cc(-c3ccc(F)cc3)nn1)=C\CC[C@@]1(C)O[C@@H]21
3. Cc1cc(N(CCNc2ccnc3cc(Cl)ccc23)Cc2ccco2)nc(Cl)n1
4. Cn1nc(-c2ccccc2)c2c(-c3ccccc3)onc2c1=O

Return:
1: 78.3; 2: -15.1; 3: -14.5; 4: 26.4

Return reported growth values for all items listed beneath this line.
1. C=C(C)[C@@H]1CC[C@]2(C(=O)O)CC[C@]3(C)[C@H](CC[C@@H]4[C@@]5(C)C/C(=C/c6ccc(OC)cc6)C(=O)C(C)(C)[C@@H]5CC[C@]43C)[C@@H]12
2. C=C(C)[C@@H]1CC[C@]2(CN)CC[C@]3(C)[C@H](CC[C@@H]4[C@@](C)(CCCN)[C@H](C(=C)C)CC[C@]43C)[C@@H]12

Return:
1: 30.9; 2: -3.93

// for each molecule in input: emit growth
1. CC(=O)OCCCCCCn1c2ccccc2c2c3c(c4c5ccccc5n(C)c4c21)C(=O)N(O)C3=O
2. O=C1C=C(C(O)c2ccc(O)cc2)C(=O)c2ccccc21 (stereo unspecified)
3. C=C(C)[C@@H]1CC[C@]2(C=O)CC[C@]3(C)[C@H](CC[C@@H]4[C@@]5(C)C/C(=C/c6cccnc6)C(=O)C(C)(C)[C@@H]5CC[C@]43C)[C@@H]12
4. Clc1ccc2[nH]cc(-c3nc(-c4c[nH]c5ncccc45)cs3)c2c1
5. COc1ccc(NC(=O)c2ccoc2COc2ccccc2)cc1
6. Oc1ccc(Nc2ccccc2)cc1

Return:
1: 17.1; 2: 87.7; 3: 40.6; 4: 9.06; 5: 88.4; 6: 94.2

For each listed entry, give its growth.
1. N#CCCCCCn1c2ccccc2c2c3[nH]c(=O)[nH]c(=O)c3c3c4ccccc4n(CCCCCC#N)c3c21
2. N#CC1=C(N)Oc2ccc3ccccc3c2C1c1ccccc1 (stereo unspecified)

Return:
20.3
25.1

====

Please provide measured growth for the entries that follow.
System: NCI/ADR-RES ovarian
Assay: NCI-60 one-dose screen, 48 h (100 = growth as untreated, 0 = no growth, -100 = all killed)
Recorded Conditions: 10 µM unless noted
About 83,000 compounds went through this panel and 20% of them were active in at least one assay; those are over-represented in the sample as a whole. Activity calls are given as the source filed them. How the source made its calls: active means growth percent below 10; inactive means the rest.

Example cases with answers are listed next.
N#C/C(=C\c1ccc(-c2ccc(F)cc2)o1)c1nc(-c2ccco2)cs1 = 107% (inactive)
CCCCCCCC(=O)SCC/C=C/[C@@H]1CC(=O)NCc2cccc(n2)CN(Cc2ccc3ccccc3c2)CC(=O)N[C@@H](C(C)C)C(=O)O1 = 30.8% (inactive)
CCCCC/C(=C\c1ccccc1)C1OC(C)C(C)O1 (stereo unspecified) = 100% (inactive)

Fill in growth for each of the 5 compounds listed.
1. CC1(C)CC[C@]2(C(=O)NCCNCCN)CC[C@]3(C)C(=CC[C@@H]4[C@@]5(C)CCC(=O)C(C)(C)[C@@H]5CC[C@]43C)[C@@H]2C1
2. C#CCN=C[C@]12CC[C@@H](C(=C)C)[C@@H]1[C@H]1CC[C@@H]3[C@@]4(C)CCC(=O)C(C)(C)[C@@H]4CC[C@@]3(C)[C@]1(C)CC2
3. CCN(CC)CCCCCCNc1ccnc2cc(Cl)ccc12
4. NC(=O)[C@@H]1CC2CCC1C2 (stereo partly specified)
5. Nc1c(C(=O)Nc2cccc(Br)c2)sc2nc3c(cc12)C(=O)CCC3

Return:
93.2% (inactive)
64.2% (inactive)
104% (inactive)
121% (inactive)
26.9% (inactive)

I need growth for every entry listed below, if you could help.
1. Cc1cccc(C)c1NC(=O)CSC(=S)N1CCCCC1
2. C[C@@H](C(=O)O)c1ccc2c3cc(Cl)ccc3n(Cc3cc(=O)oc4ccc(Cl)cc34)c2c1
3. Fc1ccc(Nc2ccc3c(OCCCN4CCOCC4)cccc3n2)cc1F

Return:
1. 103% (inactive)
2. 98.3% (inactive)
3. 76.9% (inactive)
